Target: PKB (Homo sapiens)
Construct: His; HA; made in house
Assay: PKB in vitro kinase activity assay (soluble His-HA-PKB / SPA bead screening)
Type: biochemical
Details: 1 μM compound concentration, Assay 1
Where no end group is shown, it is not given here. Side-chain parts run from the residue outwards. [ ]: non-standard residue; d: D form. The star is where a group is joined. X1 = 5‑aminoethylsulfonamide isoquinoline, O=S(=O)(NCCN*)c1cccc2cnccc12; hLeu = CC(C)CC[C@H](N)C(=O)O; Nle = CCCC[C@H](N)C(=O)O; Orn = NCCC[C@H](N)C(=O)O; Dab = NCC[C@H](N)C(=O)O; Nva = CCC[C@H](N)C(=O)O; Abu = CC[C@H](N)C(=O)O; Dap = NC[C@H](N)C(=O)O; βAla = NCCC(=O)O
Catalogue of PKB-kinase (spa) Assay 1, % inhibition of kinase activity values
readout-kind: PKB-kinase (spa) Assay 1, % inhibition of kinase activity (%)

* 60020-43: Arg-Pro-Arg-Orn-Glu(Gly-5-aminoethylsulfonamide isoquinoline)-Orn-Phe (RPR[Orn]E([Gly-X1])[Orn]F) | 48
* 60020-73: Arg-Pro-Arg-Orn-Glu(bAla-5-aminoethylsulfonamide isoquinoline)-Dab-Phe (RPR[Orn]E([βAla-X1])[Dab]F) | 16
* 60020-53: Arg-Pro-Arg-Abu-Glu(Gly-5-aminoethylsulfonamide isoquinoline)-Ala-Phe (RPR[Abu]E([Gly-X1])AF) | 20
* 60020-40: Arg-Pro-Arg-Dap-Glu(Gly-5-aminoethylsulfonamide isoquinoline)-Nva-Hol (RPR[Dap]E([Gly-X1])[Nva][hLeu]) | 36
* 60020-61: Arg-Pro-Arg-Nle-Glu(Gly-5-aminoethylsulfonamide isoquinoline)-Ala-Phe (RPR[Nle]E([Gly-X1])AF) | 29
* 60020-74: Arg-Pro-Arg-Orn-Glu(bAla-5-aminoethylsulfonamide isoquinoline)-Dab-Hol (RPR[Orn]E([βAla-X1])[Dab][hLeu]) | 33

---

Molecular target: PKB (Homo sapiens)
Construct: His; HA; made in house
Experiment: PKB in vitro kinase activity assay (soluble His-HA-PKB / SPA bead screening)
Format: biochemical
Settings: 1 μM compound concentration, Assay 2; read-out: PKB-kinase (spa) Assay 2, % inhibition of kinase activity
*1 amine or outer side, *2 acyl side, *3 side chain or, on linkers, in order; H or OH if unused. Where a SMILES comes first, the peptide text is derived from it. Side-chain parts run from the residue outwards. [ ]: non-standard residue; d: D form. The star is where a group is joined. Isoquinoline5sulfonyl = O=S(=O)(c1cccc2cnccc12)*; Ethylenediamine = C(CN[*:2])N[*:1]; hLeu = CC(C)CC[C@H](N)C(=O)O; Nle = CCCC[C@H](N)C(=O)O; Orn = NCCC[C@H](N)C(=O)O; Nva = CCC[C@H](N)C(=O)O; Dap = NC[C@H](N)C(=O)O; βAla = NCCC(=O)O
readout-kind: inhibition at 1 µM (%)

• N=C(N)NCCC[C@H](NC(=O)[C@@H]1CCCN1C(=O)[C@@H](N)CCCNC(=N)N)C(=O)N[C@@H](CN)C(=O)N[C@@H](CCC(=O)NCCC(=O)NCCNS(=O)(=O)c1cccc2cnccc12)C(=O)N[C@@H](CCCN)C(=O)N[C@@H](Cc1ccccc1)C(N)=O [60020-67] (H-RPR[Dap]E([βAla-Ethylenediamine-Isoquinoline5sulfonyl])[Orn]F-NH2; N-terminus assumed) = 68
• CCCC[C@H](NC(=O)[C@H](CCCNC(=N)N)NC(=O)[C@@H]1CCCN1C(=O)[C@@H](N)CCCNC(=N)N)C(=O)N[C@@H](CCC(=O)NCC(=O)NCCNS(=O)(=O)c1cccc2cnccc12)C(=O)N[C@@H](CCCN)C(=O)N[C@@H](Cc1ccccc1)C(N)=O [60020-59] (H-RPR[Nle]E([Gly-Ethylenediamine-Isoquinoline5sulfonyl])[Orn]F-NH2; N-terminus assumed) = 75
• CCCC[C@H](NC(=O)[C@H](CCCNC(=N)N)NC(=O)[C@@H]1CCCN1C(=O)[C@@H](N)CCCNC(=N)N)C(=O)N[C@@H](CCC(=O)NCCC(=O)NCCNS(=O)(=O)c1cccc2cnccc12)C(=O)N[C@@H](CCC)C(=O)N[C@@H](Cc1ccccc1)C(N)=O [60020-95] (H-RPR[Nle]E([βAla-Ethylenediamine-Isoquinoline5sulfonyl])[Nva]F-NH2; N-terminus assumed) = 90
• CC(C)CC[C@H](NC(=O)[C@H](CCCN)NC(=O)[C@H](CCC(=O)NCCC(=O)NCCNS(=O)(=O)c1cccc2cnccc12)NC(=O)[C@H](CN)NC(=O)[C@H](CCCNC(=N)N)NC(=O)[C@@H]1CCCN1C(=O)[C@@H](N)CCCNC(=N)N)C(N)=O [60020-68] (H-RPR[Dap]E([βAla-Ethylenediamine-Isoquinoline5sulfonyl])[Orn][hLeu]-NH2; N-terminus assumed) = 74

---

Molecular target: PKA (Bos taurus, UniProt P00517)
Construct: purchased Promega
Experiment: In vitro PKA kinase activity assay (kemptide / SPA beads);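 further: Cell-free assay of purified PKA catalytic subunit phosphorylating the 7-mer kemptide substrate, run in MOPS buffer with magnesium acetate and BSA, with blank wells lacking enzyme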
Format: biochemical
Settings: 1 μM compound concentration, Assay 1
Where no end group is shown, it is not given here. Side-chain parts run from the residue outwards. [ ]: non-standard residue; d: D form. The star is where a group is joined. X1 = 5‑aminoethylsulfonamide isoquinoline, O=S(=O)(NCCN*)c1cccc2cnccc12; hLeu = CC(C)CC[C@H](N)C(=O)O; Orn = NCCC[C@H](N)C(=O)O; Dab = NCC[C@H](N)C(=O)O; Abu = CC[C@H](N)C(=O)O; Dap = NC[C@H](N)C(=O)O
Catalogue of PKA-kinase Assay 1, % inhibition of kinase activity values
readout-kind: PKA-kinase Assay 1, % inhibition of kinase activity (%)

- 60020-49: Arg-Pro-Arg-Abu-Glu(Gly-5-aminoethylsulfonamide isoquinoline)-Dab-Phe (RPR[Abu]E([Gly-X1])[Dab]F): 95
- 60020-36: Arg-Pro-Arg-Dap-Glu(Gly-5-aminoethylsulfonamide isoquinoline)-Orn-Hol (RPR[Dap]E([Gly-X1])[Orn][hLeu]): 93
- 60020-35: Arg-Pro-Arg-Dap-Glu(Gly-5-aminoethylsulfonamide isoquinoline)-Orn-Phe (RPR[Dap]E([Gly-X1])[Orn]F; not fully specified): 95
- 60020-3: Arg-Pro-Arg-Dap-Glu(5-aminoethylsulfonamide isoquinoline)-Orn-Phe (RPR[Dap]E(X1)[Orn]F): 96
- 60020-52: Arg-Pro-Arg-Abu-Glu(Gly-5-aminoethylsulfonamide isoquinoline)-Orn-Hol (RPR[Abu]E([Gly-X1])[Orn][hLeu]): 92
- 60020-34: Arg-Pro-Arg-Dap-Glu(Gly-5-aminoethylsulfonamide isoquinoline)-Dab-Hol (RPR[Dap]E([Gly-X1])[Dab][hLeu]): 97
- 60020-10: Arg-Pro-Arg-Orn-Glu(5-aminoethylsulfonamide isoquinoline)-Dab-Hol (RPR[Orn]E(X1)[Dab][hLeu]): 92
- 60020-37: Arg-Pro-Arg-Dap-Glu(Gly-5-aminoethylsulfonamide isoquinoline)-Ala-Phe (RPR[Dap]E([Gly-X1])AF): 98
- 60020-11: Arg-Pro-Arg-Orn-Glu(5-aminoethylsulfonamide isoquinoline)-Orn-Phe (RPR[Orn]E(X1)[Orn]F): 95
- 60020-1: Arg-Pro-Arg-Dap-Glu(5-aminoethylsulfonamide isoquinoline)-Dab-Phe (RPR[Dap]E(X1)[Dab]F): 98
- 60020-51: Arg-Pro-Arg-Abu-Glu(Gly-5-aminoethylsulfonamide isoquinoline)-Orn-Phe (RPR[Abu]E([Gly-X1])[Orn]F): 94
- 60020-9: Arg-Pro-Arg-Orn-Glu(5-aminoethylsulfonamide isoquinoline)-Dab-Phe (RPR[Orn]E(X1)[Dab]F): 96
- 60020-2: Arg-Pro-Arg-Dap-Glu(5-aminoethylsulfonamide isoquinoline)-Dab-Hol (RPR[Dap]E(X1)[Dab][hLeu]): 94
- 60020-33: Arg-Pro-Arg-Dap-Glu(Gly-5-aminoethylsulfonamide isoquinoline)-Dab-Phe (RPR[Dap]E([Gly-X1])[Dab]F): 98

---

Molecular target: PKB (Homo sapiens, UniProt P31749)
Construct: His; HA; made in house
Sequence (P31749 whole entry, species assumed): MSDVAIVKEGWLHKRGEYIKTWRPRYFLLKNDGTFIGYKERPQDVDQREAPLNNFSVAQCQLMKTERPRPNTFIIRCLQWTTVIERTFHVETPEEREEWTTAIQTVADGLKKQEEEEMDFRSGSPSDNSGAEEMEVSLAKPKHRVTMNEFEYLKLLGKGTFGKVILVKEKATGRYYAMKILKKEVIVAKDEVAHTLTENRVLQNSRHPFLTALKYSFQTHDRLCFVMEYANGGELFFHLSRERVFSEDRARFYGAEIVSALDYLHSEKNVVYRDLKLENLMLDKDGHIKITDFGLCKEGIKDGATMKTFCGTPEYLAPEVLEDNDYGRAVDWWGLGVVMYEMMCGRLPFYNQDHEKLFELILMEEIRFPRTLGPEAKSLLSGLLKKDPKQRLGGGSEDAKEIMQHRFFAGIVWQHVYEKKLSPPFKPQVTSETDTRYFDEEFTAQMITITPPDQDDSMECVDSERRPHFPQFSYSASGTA
Experiment: PKB in vitro kinase activity assay (soluble His-HA-PKB / SPA bead screening)
Format: biochemical
Settings: 1 μM compound concentration, Assay 2
Where no end group is shown, it is not given here. Side-chain parts run from the residue outwards. [ ]: non-standard residue; d: D form. The star is where a group is joined. X1 = 5‑aminoethylsulfonamide isoquinoline, O=S(=O)(NCCN*)c1cccc2cnccc12; hLeu = CC(C)CC[C@H](N)C(=O)O; Nle = CCCC[C@H](N)C(=O)O; Orn = NCCC[C@H](N)C(=O)O; Abu = CC[C@H](N)C(=O)O; βAla = NCCC(=O)O
readout-kind: PKB-kinase (spa) Assay 2, % inhibition of kinase activity (%)

* 60020-14: Arg-Pro-Arg-Orn-Glu(5-aminoethylsulfonamide isoquinoline)-Ala-Hol (RPR[Orn]E(X1)A[hLeu]) | 31
* 60020-30: Arg-Pro-Arg-Nle-Glu(5-aminoethylsulfonamide isoquinoline)-Ala-Hol (RPR[Nle]E(X1)A[hLeu]) | 38
* 60020-54: Arg-Pro-Arg-Abu-Glu(Gly-5-aminoethylsulfonamide isoquinoline)-Ala-Hol (RPR[Abu]E([Gly-X1])A[hLeu]) | 45
* 60020-83: Arg-Pro-Arg-Abu-Glu(bAla-5-aminoethylsulfonamide isoquinoline)-Orn-Phe (RPR[Abu]E([βAla-X1])[Orn]F) | 60
